- PROTOCOL: xn = mol fraction of the nth substance listed
- EXPERIMENTAL_SETUP: 303.15 K; 101.33 kPa; x1 = 0.4005
RECORDED_METRIC: viscosity (mPa·s)
Hi! Could you send only the number? It should be in mPa·s, unit omitted.

Q: Could you share which viscosity value was measured for CCOC(=O)CCl + CCCCCCC ?
Result: 0.498

Q: Could you share which viscosity value was measured for CCOC(=O)CCl + CCCCCCCCCCCC ?
Result: 1.041

Q: Could you share which viscosity value was measured for CCOC(=O)CCl + CCCCCCCCCC ?
Result: 0.78

Q: Could you share which viscosity value was measured for CNC=O + O ?
Result: 1.792

Origin of values: the CheMixHub viscosity set
